biological target: cloned human 5-HT1A receptors (Homo sapiens, UniProt P08908); construct: expressed in transfected cells; assay: 35S-GTPγS binding assay, 5-HT1A function; type: biochemical; conditions: antagonist potency, reversal of 8-OH-DPAT; read-out: 5-HT1A Function GTPγS IC50
Sequence (P08908 whole entry): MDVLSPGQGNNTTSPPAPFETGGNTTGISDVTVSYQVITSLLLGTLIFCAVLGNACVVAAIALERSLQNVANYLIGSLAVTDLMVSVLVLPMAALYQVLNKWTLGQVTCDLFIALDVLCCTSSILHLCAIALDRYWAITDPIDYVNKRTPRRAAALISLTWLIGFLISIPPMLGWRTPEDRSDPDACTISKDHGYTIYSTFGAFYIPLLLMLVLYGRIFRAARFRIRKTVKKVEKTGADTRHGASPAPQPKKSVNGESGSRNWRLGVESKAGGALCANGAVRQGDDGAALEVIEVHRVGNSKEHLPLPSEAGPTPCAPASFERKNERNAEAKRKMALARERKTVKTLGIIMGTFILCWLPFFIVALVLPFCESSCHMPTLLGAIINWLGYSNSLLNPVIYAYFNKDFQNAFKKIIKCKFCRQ
METRIC: log10 of IC50 (log10 of the value in nM)

>  <COMPOUND>
CN(C)C(=O)c1ccc(F)c2c1CC(N(CCCc1c[nH]c3ccc(F)cc13)C1CCC1)CO2 (stereo not shown) [Compound 73]

>  <METRIC>
log10 of IC50

>  <OBSERVED VALUE>
3.76

$$$$
>  <COMPOUND>
N#Cc1ccc2[nH]cc(CCCN(C3CCC3)[C@H]3COc4c(F)ccc(C(N)=O)c4C3)c2c1 [Compound 97b]

>  <METRIC>
log10 of IC50

>  <OBSERVED VALUE>
2.50

$$$$
>  <COMPOUND>
CCCN(C(C)CCc1c[nH]c2ccc(F)cc12)C1COc2c(F)ccc(C(N)=O)c2C1 (single isomer, unassigned) [Compound 12d]

>  <METRIC>
log10 of IC50

>  <OBSERVED VALUE>
3.78

$$$$
>  <COMPOUND>
CNC(=O)c1ccc(F)c2c1CC(N(CCc1c[nH]c3ccc(F)cc13)C1CCC1)CO2 (stereo not shown) [Compound 87]

>  <METRIC>
log10 of IC50

>  <OBSERVED VALUE>
2.71

$$$$
>  <COMPOUND>
COC(=O)c1ccc(F)c2c1C[C@H](N(CCCCc1c[nH]c3ccc(F)cc13)C1CCC1)CO2 [Compound 58a]

>  <METRIC>
log10 of IC50

>  <OBSERVED VALUE>
3.29

$$$$
>  <COMPOUND>
C[C@@H](CCN(C1CCC1)[C@H]1COc2c(F)ccc(C(N)=O)c2C1)c1c[nH]c2ccc(F)cc12 [Compound 153a]

>  <METRIC>
log10 of IC50

>  <OBSERVED VALUE>
3.56

$$$$
>  <COMPOUND>
NC(=O)c1ccc(F)c2c1C[C@@H](N(CCCCc1c[nH]c3ccc(F)cc13)C1CCC1)CO2 [Compound 83a]

>  <METRIC>
log10 of IC50

>  <OBSERVED VALUE>
2.70

$$$$

* * *

EC50: recorded values
target: cloned human 5-HT1A receptors (Homo sapiens, UniProt P08908); experiment: 35S-GTPγS binding assay, 5-HT1A function; conditions: agonist potency
METRIC: EC50

>  <COMPOUND>
CCN(CCc1coc2c(OC)cccc12)C1COc2c(F)ccc(C(N)=O)c2C1 (stereo not shown) [Compound 157]

>  <OBSERVED VALUE>
1200 nM

$$$$
>  <COMPOUND>
CCCN(CCCc1coc2c(OC)cccc12)C1COc2c(F)ccc(C(N)=O)c2C1 (stereo not shown) [Compound 163]

>  <OBSERVED VALUE>
4.56 nM

$$$$
>  <COMPOUND>
NC(=O)c1ccc(F)c2c1OCC(NCCCc1c[nH]c3c(F)cc(F)cc13)C2 (stereo not shown) [Compound 128]

>  <OBSERVED VALUE>
608 nM

$$$$
>  <COMPOUND>
COC(=O)c1cccc2c1CC(N(CCCc1c[nH]c3c(F)cc(F)cc13)C1CCC1)CO2 (stereo not shown) [Compound 136]

>  <OBSERVED VALUE>
1330 nM

$$$$

* * *

melting point: recorded values
Structures can show the parent of a compound that is named as a salt.

>  <COMPOUND>
CCCN(CCCCc1coc2c(OC)cccc12)[C@H]1COc2c(F)ccc(C(N)=O)c2C1 (as salt: hydrochloride)

>  <melting point>
103 to 111 °C

$$$$
>  <COMPOUND>
COc1cccc2c(CCN(C3CCC3)C3COc4c(F)ccc(C(N)=O)c4C3)coc12 (stereo not shown) (as salt: hydrochloride)

>  <melting point>
135 to 145 °C (dec.)

$$$$
>  <COMPOUND>
NC(=O)c1ccc(F)c2c1OCC(N(CCCCc1c[nH]c3ccc(F)cc13)C1CCC1)C2 (stereo not shown) (as salt: hydrochloride)

>  <melting point>
130 °C (dec.)

$$$$
>  <COMPOUND>
COc1ccc2[nH]cc(CCCNC3COc4c(F)ccc(C(N)=O)c4C3)c2c1 (stereo not shown) (as salt: hydrochloride)

>  <melting point>
171 to 176 °C (dec.)

$$$$
>  <COMPOUND>
COC(=O)c1ccc(F)c2c1C[C@@H](NCCCCc1c[nH]c3ccc(F)cc13)CO2 (as salt: hydrochloride) [Compound 57b]

>  <melting point>
240 °C (dec.)

$$$$
>  <COMPOUND>
N#Cc1ccc2[nH]cc(CCCN(C3CCC3)[C@@H]3COc4c(F)ccc(C(N)=O)c4C3)c2c1 (as salt: hydrochloride) [Compound 97a]

>  <melting point>
170 to 177 °C (dec.)

$$$$
>  <COMPOUND>
COc1cccc2c1CC(N(CCCc1c[nH]c3ccc(F)cc13)CC1CCC1)CO2 (stereo not shown) (as salt: hydrochloride)

>  <melting point>
115 °C (dec.)

$$$$
>  <COMPOUND>
CCN(CCc1c[nH]c2ccc(F)cc12)C1COc2c(F)ccc(C(=O)NC)c2C1 (stereo not shown) (as salt: hydrochloride)

>  <melting point>
125 °C (dec.)

$$$$
>  <COMPOUND>
COc1cccc2c1CC(N[C@H]1CC[C@@H](c3c[nH]c4ccc(F)cc43)CC1)CO2 (relative stereo) (as salt: hydrochloride) [Compound 181a]

>  <melting point>
156.5 °C (dec.)

$$$$
>  <COMPOUND>
NC(=O)c1ccc(F)c2c1CC(N(CCCc1c[nH]c3ccc(F)cc13)CC1CC1)CO2 (stereo not shown) (as salt: hydrochloride) [Compound 5]

>  <melting point>
121 °C (dec.)

$$$$
>  <COMPOUND>
C[C@H](CCN(C1CCC1)[C@H]1COc2c(F)ccc(C(N)=O)c2C1)c1c[nH]c2ccc(F)cc12 (as salt: hydrochloride) [Compound 152a]

>  <melting point>
168 to 174 °C (dec.)

$$$$
>  <COMPOUND>
COc1cccc2c(CCCN(C3CCC3)C3COc4c(F)ccc(C(N)=O)c4C3)c[nH]c12 (stereo not shown) (as salt: hydrochloride)

>  <melting point>
156 to 162 °C (dec.)

$$$$
>  <COMPOUND>
CCCN(CCc1c[nH]c2ccc(F)cc12)C1COc2c(F)ccc(C(N)=O)c2C1 (stereo not shown) (as salt: hydrochloride)

>  <melting point>
125 °C (dec.)

$$$$

* * *

target: serotonin transporter (Rattus norvegicus, UniProt P31652); construct: displace ^3H-paroxetine from male rat cortical membranes; from tissue; host or cells: male rat cortical membranes; experiment: 5-HT transporter affinity: displacement of 3H-paroxetine from male rat cortical membranes; type: binding; settings: displacement of 3H-paroxetine; male rat cortical membranes; read-out: 5-HT Transporter Affinity Ki
Sequence (P31652 whole entry): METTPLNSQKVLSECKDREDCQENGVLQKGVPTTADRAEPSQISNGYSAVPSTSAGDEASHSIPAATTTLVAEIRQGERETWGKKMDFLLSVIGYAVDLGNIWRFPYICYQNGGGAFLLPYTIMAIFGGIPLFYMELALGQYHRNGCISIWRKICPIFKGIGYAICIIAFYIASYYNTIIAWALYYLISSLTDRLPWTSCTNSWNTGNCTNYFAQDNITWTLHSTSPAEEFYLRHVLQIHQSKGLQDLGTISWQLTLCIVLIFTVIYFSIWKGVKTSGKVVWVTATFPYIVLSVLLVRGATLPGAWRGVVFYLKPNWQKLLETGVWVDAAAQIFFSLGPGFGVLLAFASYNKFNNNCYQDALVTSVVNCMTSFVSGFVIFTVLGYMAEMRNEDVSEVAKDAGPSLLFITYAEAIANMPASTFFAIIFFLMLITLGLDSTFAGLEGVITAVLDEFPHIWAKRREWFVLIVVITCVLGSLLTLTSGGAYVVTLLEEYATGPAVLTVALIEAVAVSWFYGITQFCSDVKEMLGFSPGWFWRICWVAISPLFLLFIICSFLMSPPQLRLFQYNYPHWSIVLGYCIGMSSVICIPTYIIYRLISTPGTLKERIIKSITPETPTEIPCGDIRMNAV
METRIC: log10 Ki (log10 of the value in nM)

>  <MOLECULE>
CCN(CCCc1c[nH]c2c(Cl)cccc12)C1COc2c(F)ccc(C(N)=O)c2C1 (centres unmarked)

>  <METRIC>
log10 Ki

>  <OBSERVED VALUE>
0.66

$$$$
>  <MOLECULE>
COc1cccc2c1CC(N(CCCc1c[nH]c3ccccc13)CC1CC1)CO2 (centres unmarked)

>  <METRIC>
log10 Ki

>  <OBSERVED VALUE>
1.61

$$$$
>  <MOLECULE>
CNC(=O)c1ccc(F)c2c1CC(N(CCCCc1c[nH]c3ccc(F)cc13)C1CCC1)CO2 (centres unmarked)

>  <METRIC>
log10 Ki

>  <OBSERVED VALUE>
0.81

$$$$
>  <MOLECULE>
NC(=O)c1ccc(F)c2c1C[C@@H](NCC1CCc3[nH]c4ccc(F)cc4c3C1)CO2 (single isomer, unassigned; (+)) [Compound 175b]

>  <METRIC>
log10 Ki

>  <OBSERVED VALUE>
1.68

$$$$
>  <MOLECULE>
CCN(C(C)CCc1c[nH]c2ccc(F)cc12)C1COc2c(F)ccc(C(N)=O)c2C1 (single isomer, unassigned; (-)) [Compound 16a]

>  <METRIC>
log10 Ki

>  <OBSERVED VALUE>
-0.05

$$$$
>  <MOLECULE>
NC(=O)c1ccc(F)c2c1CC(N(CCCc1c[nH]c3ccc(Cl)cc13)CC1CC1)CO2 (centres unmarked)

>  <METRIC>
log10 Ki

>  <OBSERVED VALUE>
1.62

$$$$
>  <MOLECULE>
CCCN(CCCc1c[nH]c2ccccc12)C1CCc2cccc(OC)c2C1 (centres unmarked)

>  <METRIC>
log10 Ki

>  <OBSERVED VALUE>
1.15

$$$$
>  <MOLECULE>
CCCNC(=O)c1ccc(F)c2c1CC(N(CCCc1c[nH]c3ccc(F)cc13)C1CCC1)CO2 (centres unmarked)

>  <METRIC>
log10 Ki

>  <OBSERVED VALUE>
0.38

$$$$
